Assay: Cytotoxicity against HMBA-stiumulated mouse FLC clone 745 cells assessed as cell viability measured after 48 hrs by Neubauer chamber based microscopic analysis (reference value: 50.563%)
Type: toxicity
Conditions: HMBA-stimulated FLC clone 745 cells, read-out: Activity
// classify: if (viability at 48 h < 20%) Yes else No

Example entries and their recorded answers appear below.
- smiles-text: "CN1CCN(c2ccc(-c3cccc(CN4CCOCC4)c3)cc2NC(=O)c2c[nH]c(=O)cc2C(F)(F)F)CC1"
  qualitative-label: "Yes"
- smiles-text: "COc1cc2c(NC3CCN(C(C)C)CC3)nc(N3CCC(F)(F)CC3)nc2cc1OCCCN1CCCC1"
  qualitative-label: "Yes"
- smiles-text: "O=C([C@@H](Cc1cccc(C(F)(F)F)c1)NS(=O)(=O)c1cc(F)c2c(c1)CCNC2)N1CCCC1"
  qualitative-label: "Yes"
- smiles-text: "CCc1cc(C)[nH]c(=O)c1CNC(=O)c1cc(-c2ccc(N3CCN(C(C)C)CC3)nc2)cc2c1cnn2C(C)C"
  qualitative-label: "Yes"
- smiles-text: "Clc1cc2c(NC3CCCC3)nnc(-c3ccncc3)c2cc1Cl"
  qualitative-label: "No"
- smiles-text: "Cc1cn(CCN2CCN(c3ccccc3-c3cc(C#N)cc(C(=O)NCCCN4CCCC4)c3)CC2)c2ccccc12"
  qualitative-label: "Yes"
- smiles-text: "COc1cc2c(cc1OCCCN1CCCC1)N=C(N)C21CCC1"
  qualitative-label: "No"
- smiles-text: "CCCc1cc(C)[nH]c(=O)c1CNC(=O)c1cc(-c2ccnc(N3CCN(C)CC3)c2)cc2c1cnn2C(C)C"
  qualitative-label: "No"

Challenge: Threshold test, viability at 48 h < 20%: O=C(NCC(=O)N1CCCC1)Nc1ccc2cnccc2c1
Response given: No

Challenge: Another: COc1cc2c(NC3CCN(C(C)C)CC3)nc(C3CCCCC3)nc2cc1OCCCN1CCCC1
Response given: Yes

Challenge: Similarly, CCN(C(=O)CO)[C@H]1CN(/C(=N\C#N)Nc2cccc(OC(F)F)c2)N=C1c1ccc(Cl)c(Cl)c1 ?
Response given: No

Challenge: Proceed to CC(C)N(CCCNC(=O)Nc1ccc(C(C)(C)C)cc1)C[C@H]1O[C@@H](n2cc(Br)c3c(N)ncnc32)[C@H](O)[C@@H]1O
Response given: No

----------
Test system: FLC clone 745
Assay: Cytotoxicity against mouse FLC clone 745 cells assessed as reduction in cell viability at IC50 concentration measured up to 96 hrs by Neubauer chamber based microscopic analysis
Format: toxicity
Conditions: flc clone 745, 96 h

- smiles-text: "COc1cc2c(NC3CCN(C(C)C)CC3)nc(C3CCCCC3)nc2cc1OCCCN1CCCC1"
  assayed-target: "FLC clone 745"
  Activity: "Toxic"
- smiles-text: "CN1CCN(c2ccc(-c3cccc(CN4CCOCC4)c3)cc2NC(=O)c2c[nH]c(=O)cc2C(F)(F)F)CC1"
  assayed-target: "FLC clone 745"
  Activity: "Toxic"
- smiles-text: "COc1cc2c(NC3CCN(C(C)C)CC3)nc(N3CCC(F)(F)CC3)nc2cc1OCCCN1CCCC1"
  assayed-target: "FLC clone 745"
  Activity: "Toxic"

----------
Experiment: Cytotoxicity against mouse FLC clone 745 cells assessed as reduction in cell viability measured after 48 hrs by Neubauer chamber based microscopic analysis
Assay type: toxicity
Listing of recorded IC50 at 48 h by entry.

Worked examples, 3 compounds total:
- smiles-text: "Clc1cc2c(NC3CCCC3)nnc(-c3ccncc3)c2cc1Cl"
  IC50 at 48 h: "20 µM"
- smiles-text: "CC(C)N(CCCNC(=O)Nc1ccc(C(C)(C)C)cc1)C[C@H]1O[C@@H](n2cc(Br)c3c(N)ncnc32)[C@H](O)[C@@H]1O"
  IC50 at 48 h: "2.3 µM"
- smiles-text: "CCCc1cc(C)[nH]c(=O)c1CNC(=O)c1cc(-c2ccnc(N3CCN(C)CC3)c2)cc2c1cnn2C(C)C"
  IC50 at 48 h: "2.2 µM"

Challenge: Fill blank: measured IC50 at 48 h of the compound CCc1cc(C)[nH]c(=O)c1CNC(=O)c1cc(-c2ccc(N3CCN(C(C)C)CC3)nc2)cc2c1cnn2C(C)C is ____.
Response given: 3.2 µM

Challenge: Do the same for O=C(NCC(=O)N1CCCC1)Nc1ccc2cnccc2c1 please
Response given: 11 µM

Challenge: Follow-up entry: Cc1cn(CCN2CCN(c3ccccc3-c3cc(C#N)cc(C(=O)NCCCN4CCCC4)c3)CC2)c2ccccc12
Response given: 0.68 µM

Challenge: Would you kindly repeat that for O=C([C@@H](Cc1cccc(C(F)(F)F)c1)NS(=O)(=O)c1cc(F)c2c(c1)CCNC2)N1CCCC1 ?
Response given: 20 µM

Challenge: Then COc1cc2c(cc1OCCCN1CCCC1)N=C(N)C21CCC1 ?
Response given: > 100 µM

Challenge: Param item: COc1cc2c(NC3CCN(C(C)C)CC3)nc(C3CCCCC3)nc2cc1OCCCN1CCCC1
Response given: 0.44 µM

Challenge: Now the same for COc1cc2c(NC3CCN(C(C)C)CC3)nc(N3CCC(F)(F)CC3)nc2cc1OCCCN1CCCC1
Response given: 1.6 µM

Challenge: Subsequent entry: CCN(C(=O)CO)[C@H]1CN(/C(=N\C#N)Nc2cccc(OC(F)F)c2)N=C1c1ccc(Cl)c(Cl)c1
Response given: 4.7 µM
